Here the recorded Bliss excess is given for each entry.
system: NCI-H929 (Plasma Cell Myeloma); assay: Bliss excess, mean over the matrix (fraction); higher = more synergy
Simply state the number, no unit and no words.

| molecule | assayEndpoint | numericReadout |
| --- | --- | --- |
| NC1(C(=O)N[C@@H](CCO)c2ccc(Cl)cc2)CCN(c2ncnc3[nH]ccc23)CC1 [Capivasertib] + C[C@@H]1COCCN1C2=NC(=NC(=C2)C3(CC3)[S@](=N)(=O)C)C4=C5C=CNC5=NC=C4 [AZD6738] (first compound max 10 µM, 7x7, partner max 10 µM) | Bliss excess | -0.0009 |

Switching to the query record.
Query :: Endpoint output: Bliss excess of CC(=O)Nc1cccc(-n2c(=O)n(C3CC3)c(=O)c3c(Nc4ccc(I)cc4F)n(C)c(=O)c(C)c32)c1 [Trametinib] + Cc1nc(-c2cn3c(n2)-c2ccc(-c4cnn(C(C)(C)C(N)=O)c4)cc2OCC3)n(C(C)C)n1 [Taselisib] (first compound max 1 µM, 7x7, partner max 10 µM) . Value?
Result :: 0.0401

* * *

tested on: NCCIT (Other Solid Carcinomas); assay: Bliss excess, mean over the matrix (fraction); higher = more synergy
assayEndpoint: Bliss excess
Simply state the number, no unit and no words.

# example entries with known answers
| compound | Bliss excess |
| --- | --- |
| NC1(C(=O)N[C@@H](CCO)c2ccc(Cl)cc2)CCN(c2ncnc3[nH]ccc23)CC1 [Capivasertib] + C[C@@H]1COCCN1C2=NC(=NC(=C2)C3(CC3)[S@](=N)(=O)C)C4=C5C=CNC5=NC=C4 [AZD6738] (first compound max 10 µM, 7x7, partner max 10 µM) | -0.0139 |
| COc1nnc2ccc(N3CCC(c4ccc(OCCN5CCN(C)C(=O)[C@H]5C)cc4)CC3)nn12 [AZD5153] + Cn1cnc2c(F)c(Nc3ccc(Br)cc3Cl)c(C(=O)NOCCO)cc21 [Selumetinib] (first compound max 1 µM, 7x7, partner max 10 µM) | -0.0845 |
| Cc1c2c(nn1C)CSCc1cc(n(C)n1)CSc1cc(c3ccccc3c1)OCCCc1c(C(=O)O)n(C)c3c-2c(Cl)ccc13 [AZD5991] + Cc1cc2ncnn2cc1Nc1ncc2c(n1)n(C1CCOCC1)c(=O)n2C [AZD7648] (first compound max 1 µM, 7x7, partner max 10 µM) | -0.0494 |

Switching to the query record.
Query :: Endpoint output: Bliss excess of Cc1nc(-c2cn3c(n2)-c2ccc(-c4cnn(C(C)(C)C(N)=O)c4)cc2OCC3)n(C(C)C)n1 [Taselisib] + O=C(Nc1ccc2[nH]nc(-c3ccncc3)c2c1)[C@@H]1CCN(CC(=O)N2CCN(c3ccc(-c4ncccn4)cc3)CC2)C1 [SCH772984] (first compound max 10 µM, 7x7, partner max 5 µM) . Value?
Result :: -0.032

* * *

test system: NCI-H520 (Squamous Cell Lung Carcinoma); experiment: combination Emax (second highest fraction inhibited in the dose matrix, 72 h); higher = more inhibition; extreme values may be limits of the assay
assayEndpoint: combination Emax

# example entries with known answers
| molecule | assayedTarget | assayEndpoint | result |
| --- | --- | --- | --- |
| COc1cccc(OCCCN)c1-c1cc(Nc2cnc(C#N)cn2)n[nH]1 [Prexasertib] + O=C(c1cc(Cc2n[nH]c(=O)c3ccccc23)ccc1F)N1CCN(C(=O)C2CC2)CC1 [Olaparib] (first compound max 1 µM, 7x7, partner max 10 µM) | NCI-H520 (Squamous Cell Lung Carcinoma) | combination Emax | 0.825 |
| Cc1c2c(nn1C)CSCc1cc(n(C)n1)CSc1cc(c3ccccc3c1)OCCCc1c(C(=O)O)n(C)c3c-2c(Cl)ccc13 [AZD5991] + CC1(C)CCC(CN2CCN(c3ccc(C(=O)NS(=O)(=O)c4ccc(NCC5CCOCC5)c([N+](=O)[O-])c4)c(Oc4cnc5[nH]ccc5c4)c3)CC2)=C(c2ccc(Cl)cc2)C1 [Venetoclax] (first compound max 1 µM, 7x7, partner max 1 µM) | NCI-H520 (Squamous Cell Lung Carcinoma) | combination Emax | 0.201 |
| CC1(C)CCC(CN2CCN(c3ccc(C(=O)NS(=O)(=O)c4ccc(NCC5CCOCC5)c([N+](=O)[O-])c4)c(Oc4cnc5[nH]ccc5c4)c3)CC2)=C(c2ccc(Cl)cc2)C1 [Venetoclax] + C[C@@H]1COCCN1C2=NC(=NC(=C2)C3(CC3)[S@](=N)(=O)C)C4=C5C=CNC5=NC=C4 [AZD6738] (first compound max 1 µM, 7x7, partner max 10 µM) | NCI-H520 (Squamous Cell Lung Carcinoma) | combination Emax | 0.654 |

Query :: Endpoint output: combination Emax of CN(CCO)CC[C@H](CSc1ccccc1)Nc1ccc(S(=O)(=O)NC(=O)c2ccc(N3CCC([C@@H](O)c4ccccc4-c4ccc(Cl)cc4)CC3)cc2)cc1S(=O)(=O)C(F)(F)F [AZD4320] + Nc1ccn([C@@H]2O[C@H](CO)[C@@H](O)C2(F)F)c(=O)n1 [Gemcitabine] (first compound max 1 µM, 7x7, partner max 0.3 µM) . Value?
Result :: 0.894

* * *

Here the recorded Bliss excess is given for each entry.
tested on: ESO51 (Esophageal Adenocarcinoma); assay: Bliss excess, mean over the matrix (fraction); higher = more synergy
Simply state the number, no unit and no words.

| molecule | Bliss excess |
| --- | --- |
| Cc1cc2ncnn2cc1Nc1ncc2c(n1)n(C1CCOCC1)c(=O)n2C [AZD7648] + C=CCn1c(=O)c2cnc(Nc3ccc(N4CCN(C)CC4)cc3)nc2n1-c1cccc(C(C)(C)O)n1 [AZD1775] (first compound max 10 µM, partner max 1 µM) | -0.0433 |
| COc1cccc(OCCCN)c1-c1cc(Nc2cnc(C#N)cn2)n[nH]1 [Prexasertib] + O=C(c1cc(Cc2n[nH]c(=O)c3ccccc23)ccc1F)N1CCN(C(=O)C2CC2)CC1 [Olaparib] (first compound max 1 µM, 7x7, partner max 10 µM) | -0.248 |
| NC1(C(=O)N[C@@H](CCO)c2ccc(Cl)cc2)CCN(c2ncnc3[nH]ccc23)CC1 [Capivasertib] + CCN(CCO)CCCOc1ccc2c(Nc3cc(CC(=O)Nc4cccc(F)c4)[nH]n3)ncnc2c1 [AZD2811] (first compound max 10 µM, 7x7, partner max 1 µM) | -0.0363 |

Query :: Endpoint output: Bliss excess of CC1(C)CCC(CN2CCN(c3ccc(C(=O)NS(=O)(=O)c4ccc(NCC5CCOCC5)c([N+](=O)[O-])c4)c(Oc4cnc5[nH]ccc5c4)c3)CC2)=C(c2ccc(Cl)cc2)C1 [Venetoclax] + C=CCn1c(=O)c2cnc(Nc3ccc(N4CCN(C)CC4)cc3)nc2n1-c1cccc(C(C)(C)O)n1 [AZD1775] (first compound max 1 µM, partner max 1 µM) . Value?
Result :: -0.0404

* * *

tested on: ST486 (Burkitt's Lymphoma); test: combination Emax (second highest fraction inhibited in the dose matrix, 72 h); higher = more inhibition; extreme values may be limits of the assay
assayEndpoint: combination Emax

| molecule | combination Emax |
| --- | --- |
| COc1cccc(OCCCN)c1-c1cc(Nc2cnc(C#N)cn2)n[nH]1 [Prexasertib] + C[C@@H]1COCCN1C2=NC(=NC(=C2)C3(CC3)[S@](=N)(=O)C)C4=C5C=CNC5=NC=C4 [AZD6738] (first compound max 1 µM, 7x7, partner max 10 µM) | 0.98 |

Query :: Endpoint output: combination Emax of C[C@@H](Oc1cc(-c2cnn(C3CCNCC3)c2)cnc1N)c1c(Cl)ccc(F)c1Cl [Crizotinib] + Cn1cnc2c(F)c(Nc3ccc(Br)cc3Cl)c(C(=O)NOCCO)cc21 [Selumetinib] (first compound max 10 µM, 7x7, partner max 10 µM) . Value?
Result :: 0.936

* * *

tested on: COR-L279 (Small Cell Lung Carcinoma); assay: Bliss excess, mean over the matrix (fraction); higher = more synergy
If the reported Bliss excess equals or exceeds 0.03, assign Met. If not, assign Not met.

Query :: Check this compound for Bliss excess at or above 0.03: Cc1cc2ncnn2cc1Nc1ncc2c(n1)n(C1CCOCC1)c(=O)n2C [AZD7648] + CCN(CCO)CCCOc1ccc2c(Nc3cc(CC(=O)Nc4cccc(F)c4)[nH]n3)ncnc2c1 [AZD2811] (first compound max 10 µM, 7x7, partner max 1 µM)
Result :: Not met

Query :: Check this compound for Bliss excess at or above 0.03: C[C@@H](Oc1cc(-c2cnn(C3CCNCC3)c2)cnc1N)c1c(Cl)ccc(F)c1Cl [Crizotinib] + Cn1cnc2c(F)c(Nc3ccc(Br)cc3Cl)c(C(=O)NOCCO)cc21 [Selumetinib] (first compound max 10 µM, 7x7, partner max 10 µM)
Result :: Not met

* * *

system: SK-GT-2 (Gastric Carcinoma); assay: combination Emax (second highest fraction inhibited in the dose matrix, 72 h); higher = more inhibition; extreme values may be limits of the assay
Here the recorded combination Emax is given for each entry.
Simply state the number, no unit and no words.

# example entries with known answers
| molecule | combination Emax |
| --- | --- |
| NC1(C(=O)N[C@@H](CCO)c2ccc(Cl)cc2)CCN(c2ncnc3[nH]ccc23)CC1 [Capivasertib] + C[C@@H]1COCCN1C2=NC(=NC(=C2)C3(CC3)[S@](=N)(=O)C)C4=C5C=CNC5=NC=C4 [AZD6738] (first compound max 10 µM, 7x7, partner max 10 µM) | 0.601 |
| COc1cc2c(cc1OCCCCCOc1cc3c(cc1OC)C(=O)N1C=C(C)C[C@H]1C=N3)N=C[C@@H]1CC(C)=CN1C2=O [SG3199] + O=C(c1cc(Cc2n[nH]c(=O)c3ccccc23)ccc1F)N1CCN(C(=O)C2CC2)CC1 [Olaparib] (first compound max 0.001 µM, 7x7, partner max 10 µM) | 0.12 |

Query :: Endpoint output: combination Emax of CN(C)CCCOc1ccc(-c2ccc3ncc4c(c3c2)n(C2CCOCC2)c(=O)n4C)cn1 [AZD0156] + C[C@@H]1COCCN1C2=NC(=NC(=C2)C3(CC3)[S@](=N)(=O)C)C4=C5C=CNC5=NC=C4 [AZD6738] (first compound max 1 µM, 7x7, partner max 10 µM) . Value?
Result :: 0.311
